pIC50: −log10 of the molar value.
// cross-source set; read-out = pIC50; system = UniProt Q9H3R0

Answered cases to consult:
CN(C)Cc1ccccc1CNc1cnccc1C(=O)O: ≥ 7.00
O=C(O)c1ccncc1NC[C@@H]1CCCc2cc(N3CCOc4ccccc43)ccc21: 5.00 to 6.00
O=C(O)c1ccncc1NCC1COc2ccccc2O1 (stereo not shown): ≥ 7.00
COc1ccc(Oc2nc(O)c3ccncc3n2)cc1F: 6.00 to 7.00

Ask: Recall the recorded pIC50 for Cn1cnc(-c2cc(C(=O)O)ccn2)c1-c1ccc(-n2cccn2)cc1 with UniProt Q9H3R0 and state it.
Reply: 6.00 to 7.00

Ask: Recall the recorded pIC50 for CN(c1ccc2c(c1)CCC[C@H]2CNc1cnccc1C(=O)O)c1ccn(C)c(=O)c1 with UniProt Q9H3R0 and state it.
Reply: 6.00 to 7.00

----------
// cross-source set; read-out = pIC50; system = UniProt:Q9H3R0
pIC50: −log10 of the molar value.

C[C@H](c1ccccc1)N(C)c1ccc(Oc2nc(O)c3ccncc3n2)cc1: 6.00 to 7.00

Ask: Recall the recorded pIC50 for CC(C)c1ccc(N(c2ccc(Oc3nc(O)c4ccncc4n3)cc2)C2CCNC2)cc1 (stereo not shown) with UniProt:Q9H3R0 and state it.
Reply: ≥ 7.00

Ask: Recall the recorded pIC50 for O=C(O)c1ccncc1NCc1ccccc1O with UniProt:Q9H3R0 and state it.
Reply: ≥ 7.00

Ask: Recall the recorded pIC50 for O=C(O)c1ccnc(-c2cn(CCNCC3CC(F)(F)C3)cn2)c1 with UniProt:Q9H3R0 and state it.
Reply: ≥ 7.00

Ask: Recall the recorded pIC50 for CN(c1ccc2c(c1)COC2)c1ccc2c(c1)OCC[C@H]2CNc1cnccc1C(=O)O with UniProt:Q9H3R0 and state it.
Reply: 6.00 to 7.00

Ask: Recall the recorded pIC50 for Cc1ccc(N(C)c2ccc(Oc3nc(O)c4ccncc4n3)cc2)nc1 with UniProt:Q9H3R0 and state it.
Reply: 6.00 to 7.00

Ask: Recall the recorded pIC50 for Oc1nc(OCCOCc2ccccc2)nc2cnccc12 with UniProt:Q9H3R0 and state it.
Reply: 6.00 to 7.00

Ask: Recall the recorded pIC50 for CN(C(=O)Cc1ccccc1)c1ccc(Oc2nc(O)c3ccncc3n2)cc1 with UniProt:Q9H3R0 and state it.
Reply: 6.00 to 7.00

Ask: Recall the recorded pIC50 for O=C(O)c1ccncc1NC[C@@H]1CCCc2c(F)cccc21 with UniProt:Q9H3R0 and state it.
Reply: 6.00 to 7.00

Ask: Recall the recorded pIC50 for Cc1cccc(CN(C)CCn2cnc(-c3cc(C(=O)O)ccn3)c2)c1 with UniProt:Q9H3R0 and state it.
Reply: ≥ 7.00

Ask: Recall the recorded pIC50 for O=C(O)c1ccncc1NC[C@@H]1CCOc2cc(-c3cccc(F)c3)ccc21 with UniProt:Q9H3R0 and state it.
Reply: 5.00 to 6.00

Ask: Recall the recorded pIC50 for O=S(=O)(C1CC1)N1CC[C@@H](n2cc(Oc3nc(O)c4ccncc4n3)cn2)C1 with UniProt:Q9H3R0 and state it.
Reply: ≥ 7.00

Ask: Recall the recorded pIC50 for CN(c1ccc2c(c1)CCC[C@H]2CNc1cnccc1C(=O)O)C1CCOCC1 with UniProt:Q9H3R0 and state it.
Reply: 6.00 to 7.00

Ask: Recall the recorded pIC50 for O=C(O)c1ccncc1NC[C@@H]1CCCc2cc(N(CCO)c3ccccc3)ccc21 with UniProt:Q9H3R0 and state it.
Reply: 6.00 to 7.00

Ask: Recall the recorded pIC50 for Cc1ccc(CN(C)CCn2cnc(-c3cc(C(=O)O)ccn3)c2)cc1 with UniProt:Q9H3R0 and state it.
Reply: ≥ 7.00

Ask: Recall the recorded pIC50 for CN(c1ccc(-n2ccnc2)cc1)c1ccc2c(c1)OCC[C@H]2CNc1cnccc1C(=O)O with UniProt:Q9H3R0 and state it.
Reply: 6.00 to 7.00

----------
// cross-source set; read-out = IC50; system = Lysine-specific demethylase 4C (Homo sapiens, UniProt Q9H3R0)

Answered cases to consult:
CCOc1ccc(N(C)c2ccc3c(c2)CCC[C@H]3CNc2cnccc2C(=O)O)cc1: 0.1 to 1 µM
CCCOc1nc(O)c2ccncc2n1: 0.1 to 1 µM
O=C(O)c1ccncc1NCc1ccc(F)cc1: ≤ 0.1 µM

Ask: Recall the recorded IC50 for CC(C)(C)C(=O)OCn1nnc(-c2ccnc(-c3ncn(Cc4ccccc4Cl)c3-c3ccc(F)cc3)c2)n1 with Lysine-specific demethylase 4C (Homo sapiens, UniProt Q9H3R0) and state it.
Reply: 1 to 10 µM

Ask: Recall the recorded IC50 for Cc1ccc(Cc2cc(O)n(-c3cc(C(=O)O)ccn3)n2)c(F)c1 with Lysine-specific demethylase 4C (Homo sapiens, UniProt Q9H3R0) and state it.
Reply: 1 to 10 µM

Ask: Recall the recorded IC50 for O=C(O)c1ccncc1NCC1CCOc2cc(Br)ccc21 (stereo not shown) with Lysine-specific demethylase 4C (Homo sapiens, UniProt Q9H3R0) and state it.
Reply: 0.1 to 1 µM

Ask: Recall the recorded IC50 for Oc1nc(OCc2ccccc2F)nc2cnccc12 with Lysine-specific demethylase 4C (Homo sapiens, UniProt Q9H3R0) and state it.
Reply: ≤ 0.1 µM

Ask: Recall the recorded IC50 for CCc1cccc(Oc2nc(O)c3ccncc3n2)c1 with Lysine-specific demethylase 4C (Homo sapiens, UniProt Q9H3R0) and state it.
Reply: ≤ 0.1 µM

Ask: Recall the recorded IC50 for CCc1ccc(COc2ccnn2-c2cc(C(=O)O)ccn2)cc1Cl with Lysine-specific demethylase 4C (Homo sapiens, UniProt Q9H3R0) and state it.
Reply: 0.1 to 1 µM

Ask: Recall the recorded IC50 for O=C(O)c1ccnc(-c2ncn(CCc3ccccc3Cl)c2-c2ccc(F)cc2)c1 with Lysine-specific demethylase 4C (Homo sapiens, UniProt Q9H3R0) and state it.
Reply: 0.1 to 1 µM

----------
// cross-source set; read-out = IC50; system = Lysine-specific demethylase 4C (Homo sapiens, UniProt Q9H3R0)

Answered cases to consult:
Cn1cnc(-c2nccc3c(O)nc(OCC4CCOC4)nc23)c1 (centres unmarked): ≤ 100 nM
O=C(O)c1ccnc(-n2nccc2OCc2ccc(Cl)c(F)c2)c1: < 100 nM
COc1ccc2c(c1C)CCC[C@@H]2CNc1cnccc1C(=O)O: 100 to 1000 nM
CN(C)CCCOc1nc(O)c2ccncc2n1: 100 to 1000 nM
CCOc1ccc(N(C)c2ccc3c(c2)OCC[C@H]3CNc2cnccc2C(=O)O)cc1: 100 to 1000 nM
O=C(O)c1ccncc1NC[C@@H]1CCOc2cc(-c3cccc(F)c3Cl)ccc21: 100 to 1000 nM
CN(c1ccc(Oc2nc(O)c3ccncc3n2)cc1)c1ccc2nn(C)cc2c1: 100 to 1000 nM
O=C(O)c1ccnc(-c2cn(CCc3ccc(F)cc3)cn2)c1: ≤ 100 nM
O=C(O)c1ccnc(-n2nccc2OCc2ccc(F)cc2/C=C/c2ccc(F)cc2)c1: 1000 to 10000 nM
O=C(O)c1ccnc(-n2nccc2OCc2ccc(C3CC3)cc2)c1: 100 to 1000 nM

Ask: Requested field: IC50. Item: CN1CCCC(Cn2cnc(-c3cc(C(=O)O)ccn3)c2)C1 (centres unmarked)
Reply: ≤ 100 nM

Ask: Requested field: IC50. Item: O=C(O)c1ccnc(-c2cn(CCN(Cc3ccc(Cl)cc3)C3CC3)cn2)c1
Reply: 100 to 1000 nM

Ask: Requested field: IC50. Item: O=C(O)c1ccnc(-c2cn(Cc3cccc(F)c3)cn2)c1
Reply: 100 to 1000 nM

Ask: Requested field: IC50. Item: CC(C)Cc1ccc(N(C)c2ccc(Oc3nc(O)c4ccncc4n3)cc2)cc1
Reply: 100 to 1000 nM

----------
// cross-source set; read-out = IC50; system = Lysine-specific demethylase 4C (Homo sapiens, UniProt Q9H3R0)

Answered cases to consult:
CCc1cc(Cl)ccc1COc1ccnn1-c1cc(C(=O)O)ccn1: 1 to 10 µM
O=C(O)c1ccncc1NCc1ccc(Cl)c(Cl)c1: ≤ 0.1 µM

// moving on: another record for IC50
Ask: Requested field: IC50. Item: O=C(O)c1ccncc1NC[C@@H]1CCCc2cc(Oc3ccc(F)cc3F)ccc21
Reply: 0.1 to 1 µM

----------
pIC50: −log10 of the molar value.
// cross-source set; read-out = pIC50; system = UniProt:Q9H3R0

O=C(O)c1ccncc1NCC1CCOc2cc(Nc3ccccc3)ccc21 (centres unmarked): 6.00 to 7.00
Oc1nc(OCC2CCCc3ccccc32)nc2cnccc12 (centres unmarked): ≥ 7.00
Cc1ccc(N(C)c2ccc3c(c2)CCC[C@H]3CNc2cnccc2C(=O)O)cc1: 6.00 to 7.00
O=C(O)c1ccncc1NCC1CCSc2ccccc21 (centres unmarked): 6.00 to 7.00

// moving on: another record for pIC50
Ask: Recall the recorded pIC50 for CN(c1ccc(C2=CCOCC2)cc1)c1ccc2c(c1)CCC[C@H]2CNc1cnccc1C(=O)O with UniProt:Q9H3R0 and state it.
Reply: 5.00 to 6.00
